Biological target: autotaxin (ATX) (Homo sapiens)
Construct: conditioned medium from the human melanoma cell line, MDA-MB-4355, which endogenously expresses autotaxin; serum-free conditioned medium, concentrated 20-fold
Assay: Native Autotaxin Choline Release Assay
Details: autotaxin in conditioned medium from human melanoma cell line; choline released from LPC; read-out: MDA-MB-435S Assay IC50
pIC50: −log10 of the molar value.
quantity kind: pIC50

Task: Quick one: pIC50 of CCn1cc(-n2c(C)c(Sc3cccc(C(=O)O)c3F)c3ccc(Cl)c(F)c32)cn1 ?
Result: > 6.52

Task: Quick one: pIC50 of Cc1[nH]c2cc(Cl)ccc2c1Sc1ccc(CC(=O)O)cc1 ?
Result: < 6.00

Task: Quick one: pIC50 of Cc1c(Sc2cccc(CC(=O)O)c2)c2ccc(Cl)cc2n1C ?
Result: < 6.00

Task: Quick one: pIC50 of COc1ccc(-n2c(C)c(Sc3cccc(C(=O)O)c3)c3ccc(Cl)cc32)cn1 ?
Result: > 6.52

Further cases:
Task: Quick one: pIC50 of Cc1c(Sc2cccc(C(=O)O)c2)c2ccc(Cl)c(F)c2n1-c1cnn(-c2cccc(Cl)c2)c1 ?
Result: > 6.52

Task: Quick one: pIC50 of CCn1cc(-n2c(C)c(Sc3cccc(C(=O)O)c3)c3ccc(Cl)c(Cl)c32)cn1 ?
Result: > 6.52

Task: Quick one: pIC50 of CCCn1cc(-n2c(C)c(Sc3cccc(C(=O)O)c3)c3cc(F)c(Cl)cc32)cn1 ?
Result: > 6.52

###

Biological target: autotaxin (ATX) (Homo sapiens, UniProt Q13822)
Construct: conditioned medium from the human melanoma cell line, MDA-MB-4355, which endogenously expresses autotaxin; serum-free conditioned medium, concentrated 20-fold
Assay: Native Autotaxin Choline Release Assay
Settings: autotaxin in conditioned medium from human melanoma cell line; choline released from LPC; read-out: MDA-MB-435S Assay IC50
quantity kind: IC50

Use the examples below as a reference point.
Task: Quick one: IC50 of CCn1cc(-n2c(C)c(Sc3ccc(CC(=O)O)cc3)c3ccc(Cl)cc32)cn1 ?
Result: < 0.3 µM

Task: Quick one: IC50 of O=C(O)c1cccc(Sc2c(C(F)(F)F)[nH]c3cc(Cl)ccc23)c1 ?
Result: > 1 µM

Task: Quick one: IC50 of CCn1cc(-n2c(C)c(Sc3cccc(CC(=O)O)c3)c3ccc(Cl)cc32)cn1 ?
Result: < 0.3 µM

Task: Quick one: IC50 of Cc1c(Sc2cc(C(=O)O)cc(C(F)(F)F)c2)c2ccc(Cl)cc2n1-c1cccnc1 ?
Result: > 1 µM

Task: Quick one: IC50 of Cc1c(Sc2cccc(C(=O)O)c2)c2ccc(Cl)c(F)c2n1-c1cnn(CC2CC2)c1 ?
Result: < 0.3 µM

Further cases:
Task: Quick one: IC50 of CCn1cc(-n2c(C)c(Sc3ccc(C)c(C(=O)O)c3)c3ccc(Cl)c(F)c32)cn1 ?
Result: < 0.3 µM

Task: Quick one: IC50 of Cc1c(Sc2cccc(CCC(=O)O)c2)c2ccc(Cl)cc2n1Cc1ccccc1 ?
Result: > 1 µM

Task: Quick one: IC50 of Cc1[nH]c2cc(Cl)ccc2c1Sc1cccc(B(O)O)c1 ?
Result: > 1 µM

###

Molecular target: autotaxin (ATX) (Homo sapiens)
Construct: conditioned medium from the human melanoma cell line, MDA-MB-4355, which endogenously expresses autotaxin; serum-free conditioned medium, concentrated 20-fold
Test: Native Autotaxin Choline Release Assay
Details: autotaxin in conditioned medium from human melanoma cell line; choline released from LPC; read-out: MDA-MB-435S Assay IC50
pIC50: −log10 of the molar value.
quantity kind: pIC50

Use the examples below as a reference point.
Task: Quick one: pIC50 of CCCn1cc(-n2c(C)c(Sc3cccc(CC(=O)NS(C)(=O)=O)c3)c3ccc(Cl)cc32)cn1 [Compound 3-53] ?
Result: > 6.52

Task: Quick one: pIC50 of CCn1cc(-n2c(C)c(Sc3cc(C)cc(C(=O)O)c3)c3ccc(Cl)cc32)cn1 [Compound 1-52] ?
Result: < 6.00

Task: Quick one: pIC50 of CCn1cc(-n2c(C)c(Sc3cc(Br)cc(C(=O)O)c3)c3ccc(Cl)cc32)cn1 [Compound 1-51] ?
Result: < 6.00

Task: Quick one: pIC50 of Cc1[nH]c2cc(F)ccc2c1Sc1cccc(CC(=O)O)c1 [Compound 1-2] ?
Result: < 6.00

Task: Quick one: pIC50 of Cc1c(Sc2cccc(CC(=O)O)c2)c2ccc(Cl)cc2n1-c1cnn(C)c1 [Compound 1-45] ?
Result: > 6.52

Further cases:
Task: Quick one: pIC50 of Cc1c(Sc2cccc(C(=O)NCCN(C)C)c2)c2ccc(Br)cc2n1Cc1ccccc1 [Compound 2-11] ?
Result: < 6.00

Task: Quick one: pIC50 of Cc1c(Oc2cccc(CC(=O)O)c2)c2ccc(Cl)cc2n1Cc1ccccc1 [Compound 1-16] ?
Result: < 6.00

Task: Quick one: pIC50 of Cc1ccc(-n2c(C)c(Sc3cccc(C(=O)O)c3)c3ccc(Cl)cc32)nn1 [Compound 1-68] ?
Result: 6.00 to 6.52

Task: Quick one: pIC50 of CCCn1cc(-n2c(C)c(Sc3ccc(C(F)(F)F)c(CC(=O)O)c3)c3ccc(Cl)c(F)c32)cn1 [Compound 4-14] ?
Result: > 6.52

Task: Quick one: pIC50 of O=C(O)c1cccc(Sc2cn(Cc3ccccc3)c3cc(Cl)ccc23)c1 [Compound 3-17] ?
Result: 6.00 to 6.52

Task: Quick one: pIC50 of Cc1c(Sc2cccc(C(=O)O)c2)c2ccc(Cl)cc2n1-c1ccccn1 [Compound 1-31] ?
Result: 6.00 to 6.52

Task: Quick one: pIC50 of Cc1c(Sc2cccc(C(=O)O)c2)c2ccc(Cl)c(F)c2n1-c1cnn(CCO)c1 [Compound 3-50] ?
Result: > 6.52

Task: Quick one: pIC50 of Cc1c(Sc2cccc(Cc3nn[nH]n3)c2)c2ccc(Cl)cc2n1Cc1ccccc1 [Compound 2-8] ?
Result: < 6.00

Task: Quick one: pIC50 of Cc1c(Oc2cccc(Cc3nn[nH]n3)c2)c2ccc(Cl)cc2n1Cc1ccccc1 [Compound 2-6] ?
Result: < 6.00

Task: Quick one: pIC50 of Cc1[nH]c2cccc(F)c2c1Sc1cccc(CC(=O)O)c1 [Compound 3-5] ?
Result: < 6.00

Task: Quick one: pIC50 of Cc1c(Sc2cccc(C(=O)O)c2)c2ccc(Cl)cc2n1C [Compound 1-6] ?
Result: < 6.00

Task: Quick one: pIC50 of CCC(C(=O)O)c1cccc(Sc2c(C)n(-c3cccnc3)c3cc(Cl)ccc23)c1 (stereo not shown) [Compound 1-49] ?
Result: > 6.52

Task: Quick one: pIC50 of Cc1ccc(-n2c(C)c(Sc3cccc(C(=O)O)c3)c3ccc(Cl)c(F)c32)s1 [Compound 3-62] ?
Result: 6.00 to 6.52

Task: Quick one: pIC50 of Cc1c(Sc2cccc(C(=O)O)c2)c2ccc(Cc3ccccc3)cc2n1Cc1ccccc1 [Compound 1-13] ?
Result: < 6.00

Task: Quick one: pIC50 of COc1ccc(C(=O)O)cc1Sc1c(C)n(-c2cccnc2)c2cc(Cl)ccc12 [Compound 1-40] ?
Result: < 6.00

Task: Quick one: pIC50 of COCCn1c(C)c(Sc2cccc(CC(=O)O)c2)c2ccc(Cl)cc21 [Compound 1-8] ?
Result: 6.00 to 6.52

Task: Quick one: pIC50 of CCCn1cc(-n2c(C)c(Sc3cccc(CC(=O)O)c3)c3ccc(Cl)c(F)c32)cn1 [Compound 3-37] ?
Result: > 6.52

###

Target: autotaxin (ATX) (Homo sapiens, UniProt Q13822)
Construct: conditioned medium from the human melanoma cell line, MDA-MB-4355, which endogenously expresses autotaxin; serum-free conditioned medium, concentrated 20-fold
Experiment: Native Autotaxin Choline Release Assay
Details: autotaxin in conditioned medium from human melanoma cell line; choline released from LPC; read-out: MDA-MB-435S Assay IC50
quantity kind: IC50

Task: Quick one: IC50 of Cc1c(Sc2cccc(C(=O)O)c2)c2ccc(Cl)c(F)c2n1-c1cnn(C2CC2)c1 ?
Result: < 300 nM

Task: Quick one: IC50 of COc1cncc(-n2c(C)c(Sc3cccc(C(=O)O)c3)c3ccc(Cl)cc32)c1 ?
Result: < 300 nM

Task: Quick one: IC50 of Cc1c(Sc2cccc(C(=O)O)c2)c2ccc(Cl)c(F)c2n1-c1cnn(C2CCC2)c1 ?
Result: < 300 nM

Task: Quick one: IC50 of Cc1c(Sc2cc(C(=O)O)cc(C(F)(F)F)c2)c2ccc(Cl)cc2n1-c1cnn(C)c1 ?
Result: > 1000 nM

Task: Quick one: IC50 of Cc1c(Sc2cccc(C(=O)O)c2)c2ccc(Cl)c(F)c2n1-c1cnn(C(C)(C)C)c1 ?
Result: < 300 nM

Task: Quick one: IC50 of O=C(O)c1cccc(Sc2cn(-c3cccnc3)c3cc(Cl)ccc23)c1 ?
Result: 300 to 1000 nM

Task: Quick one: IC50 of CCCn1cc(-n2c(C)c(Sc3ccc(C)c(C(=O)O)c3)c3ccc(Cl)c(F)c32)cn1 ?
Result: < 300 nM

Task: Quick one: IC50 of CCCCn1cc(-n2c(C)c(Sc3cccc(C(=O)O)c3)c3ccc(Cl)cc32)cn1 ?
Result: < 300 nM

Task: Quick one: IC50 of Cc1c(Sc2cccc(C(=O)O)c2)c2ccc(Cl)cc2n1-c1ccc(C(F)(F)F)nc1 ?
Result: 300 to 1000 nM

Task: Quick one: IC50 of Cc1c(Sc2cccc(C(=O)O)c2)c2ccc(Cl)cc2n1Cc1ccncc1 ?
Result: < 300 nM

Task: Quick one: IC50 of Cc1c(Sc2cccc(C(=O)O)c2)c2ccc(Cl)cc2n1Cc1ccc(C(F)(F)F)nc1 ?
Result: > 1000 nM

Task: Quick one: IC50 of Cc1c(Sc2cccc(C(=O)O)c2)c2ccc(Cl)cc2n1Cc1cccnc1 ?
Result: < 300 nM
